Biological target: T1, LAIR1 on LAIR1 reporter cells (human, UniProt Q6GTX8 22-165, limits assumed); also: test concentration or dose not given here
T1 chain: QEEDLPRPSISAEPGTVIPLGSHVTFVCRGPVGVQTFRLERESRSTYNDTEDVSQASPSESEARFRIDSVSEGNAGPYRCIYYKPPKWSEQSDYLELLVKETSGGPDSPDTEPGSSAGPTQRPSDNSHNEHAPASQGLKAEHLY
Assay: cell-based or functional assay
test readout: GFP+% of LAIR1 reporter cells, collagen I coated, soluble Ab
Field: value (include unit after the number)

I need GFP+% of LAIR1 reporter cells, collagen I coated, soluble Ab for every entry listed below, if you could help.
1. LA-192 (antibody, V domains shown, Rabbit monoclonal IgG; Called an agonist antibody) VH: EQSLEESGGRLVTPGTPLTLTCTASGFSLSSYYMTWVRQAPGKGLEWIGYMHTGGGVVYASWATGRFTISRTSTTVDLKITSPTTEDTATYFCARSHAGYSTINRLDLWGVGTLVTISS VL: ELDLTQTPSSVSAAVGGTVTISCQSSPSVYTNNLSWFQQKPGQPPKLLIYDASKLESGVPSRFRGSGSGTQFTLTISDVQCDDAATYYCAGAYLSDSDTTFGGGTELEIK
2. LA-82 (antibody, V domains shown, Rabbit monoclonal IgG; also called mAb LA-82) VH: EQSLEESGGDLVKPGASLTLACTASGFSFSDGYYMCWVRQAPGKGLEWIGCIHSSSGSIYYASWAKGRFTISKTSSTMVTLQMSSLTAADTATYFCARDSESYGYNPCELWGPGTLVTISS VL: ELVMTQTPASVSEAVGGTVTIKCQASQTISNYLAWYQQKPGQRPKLLIYAASSLASGVSSRFRGSRSGTEYTLTITDLECDDAATYYCQCTYYGTTYIGGAFGGGTEVEIK
3. LA-63 (antibody, V domains shown, Rabbit monoclonal IgG; also called mAb LA-63) VH: EQSVEESGGRLVAPGGSLTLTCTVSGFSLSSYAMSWVRQAPGKGLEWIGVMYNSGSAYYASWAKGRFTISRTSTTVDLKVTSLTTEDTATYFCGRGGSNSAWGDDLWGPGTLVTVSS VL: ELDMTQTPASVSEPVGGTVTIKCQASQSISIRYFSWYQQKPGQPPKLLIYGASTLASGVPSRFKGSGSGTDFTLTISDLECADAATYYCQDSNYNSNYFGAFGGGTEVVVK

["63.2%", "1.1%", "2.42%"]

# credit: patent US20190338026A1
